MEASUREMENT TARGET: Adenosine receptor A2a (Homo sapiens, UniProt P29274)
Sequence (P29274 whole entry): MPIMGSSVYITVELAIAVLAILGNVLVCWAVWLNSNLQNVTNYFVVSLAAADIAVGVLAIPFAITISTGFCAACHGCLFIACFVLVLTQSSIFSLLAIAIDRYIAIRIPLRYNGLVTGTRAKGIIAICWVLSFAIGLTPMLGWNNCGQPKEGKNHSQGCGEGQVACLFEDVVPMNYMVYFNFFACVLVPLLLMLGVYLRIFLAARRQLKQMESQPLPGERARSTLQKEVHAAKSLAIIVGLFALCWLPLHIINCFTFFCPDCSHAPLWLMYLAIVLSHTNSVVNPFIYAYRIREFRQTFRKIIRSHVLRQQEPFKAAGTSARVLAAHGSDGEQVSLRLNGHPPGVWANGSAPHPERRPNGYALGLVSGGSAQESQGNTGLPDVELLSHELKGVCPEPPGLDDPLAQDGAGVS
ASSAY EXPLANATION: Inverse agonist activity at recombinant human A2A receptor expressed in HEK293T cells co-expressing Gs assessed as decrease in cAMP accumulation measured after 15 mins by Glosensor chemiluminescence assay
PARAMETER: pIC50
Expect pIC50 as a plain number equal to -log10 of the molar concentration.

For this compound ( Nc1nc(NCc2ccc(Cl)cc2)nc(-c2ccccc2CO)n1 ), measured pIC50 is 5.77

###

MEASUREMENT TARGET: Melatonin receptor type 1B (Homo sapiens)
Sequence (P49286 whole entry): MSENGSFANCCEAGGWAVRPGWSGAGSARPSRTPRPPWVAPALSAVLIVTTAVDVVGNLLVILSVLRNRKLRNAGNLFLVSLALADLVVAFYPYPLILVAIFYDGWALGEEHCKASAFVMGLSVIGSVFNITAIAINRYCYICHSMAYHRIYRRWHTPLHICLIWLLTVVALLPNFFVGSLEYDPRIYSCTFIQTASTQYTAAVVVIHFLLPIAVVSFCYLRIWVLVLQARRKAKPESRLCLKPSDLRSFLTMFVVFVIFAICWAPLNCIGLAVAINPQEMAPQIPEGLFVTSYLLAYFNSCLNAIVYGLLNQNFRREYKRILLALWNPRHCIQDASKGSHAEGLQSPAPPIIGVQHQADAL
ASSAY EXPLANATION: Agonist activity at human MT2 receptor expressed in HTLA cells assessed as stimulation of beta-arrestin recruitment incubated for 16 to 20 hrs by bright-glo luminescence assay
PARAMETER: EC50

Lab note: compound Nc1nc(NCc2ccc(Oc3ccccc3)cc2)nc(-c2c(F)cccc2CO)n1 tested on Melatonin receptor type 1B (Homo sapiens); recorded EC50 was 0.54 µM

###

MEASUREMENT TARGET: G-protein coupled receptor 68 (Homo sapiens)
ASSAY EXPLANATION: Positive allosteric modulation of human GPR68 expressed in HEK293T cells co-expressing Gs assessed as stimulation of proton-mediated cAMP production by measuring allosteric affinity cooperativity in HBSS buffer containing pH 6.8 to 8.2 HEPES/pH 8.3 to 8.6 TAPS measured after 20 to 30 mins in presence of PDE inhibitor Ro 20-1724 by luciferase-glo reporter gene assay
Format: functional, cell-based
Activity calls are given as the source filed them. The calls are words filed in the database; no cut-off is given here.
PARAMETER: log(activity)

Worked cases, log(activity) given:
[[record]]
molecule = "NCc1ccccc1-c1nc(N)nc(NCc2ccccc2)n1"
value_observed = 0.86

[[record]]
molecule = "CC(=O)c1cccc(-c2nc(N)nc(NCc3ccccc3)n2)c1"
value_observed = "inactive"

[[record]]
molecule = "CCOc1ccc(-c2nc(N)nc(NCc3ccccc3)n2)c(CO)c1"
value_observed = 0.87

[[record]]
molecule = "Nc1nc(NCCc2ccccc2)nc(-c2ccccc2CO)n1"
value_observed = 0.88

[[record]]
molecule = "COc1cccc(CO)c1-c1nc(N)nc(NCc2ccccc2)n1"
value_observed = "inactive"


Lab note: molecule Nc1nc(NCCc2ccc(Oc3ccccc3)cc2)nc(-c2ccccc2CO)n1 tested on G-protein coupled receptor 68 (Homo sapiens); recorded log(activity) was 0.83

Lab note: molecule CCNc1nc(NCc2ccccc2)nc(-c2ccccc2CO)n1 tested on G-protein coupled receptor 68 (Homo sapiens); recorded log(activity) was 0.47

Lab note: molecule COc1ccccc1CNc1nc(N)nc(-c2ccccc2CO)n1 tested on G-protein coupled receptor 68 (Homo sapiens); recorded log(activity) was 0.98

Lab note: molecule Nc1nc(NCc2ccc(Oc3ccccc3)cc2)nc(-c2c(F)cccc2CO)n1 tested on G-protein coupled receptor 68 (Homo sapiens); recorded log(activity) was 0.9

Lab note: molecule Nc1nc(NCCCCc2ccccc2)nc(-c2ccccc2CO)n1 tested on G-protein coupled receptor 68 (Homo sapiens); recorded log(activity) was 0.62

Lab note: molecule COc1ccc(CO)c(-c2nc(N)nc(NCc3ccccc3)n2)c1 tested on G-protein coupled receptor 68 (Homo sapiens); recorded log(activity) was 0.61

Lab note: molecule COc1ccc(-c2nc(N)nc(NCc3ccccc3)n2)c(CO)c1 tested on G-protein coupled receptor 68 (Homo sapiens); recorded log(activity) was 0.46

Lab note: molecule CN(C)c1nc(NCc2ccccc2)nc(-c2ccccc2CO)n1 tested on G-protein coupled receptor 68 (Homo sapiens); recorded log(activity) was inactive

Lab note: molecule Nc1nc(NCc2cccc(Cl)c2)nc(-c2ccccc2CO)n1 tested on G-protein coupled receptor 68 (Homo sapiens); recorded log(activity) was 0.48

Numbers sourced from ChEMBL document CHEMBL4406806.
